The origin of these recorded values is patent US20260327294.

- Target: RSV A2 pre-F (RSV A2)
- Test name: BLI
Readout: pKd
Just so you know, pKd here is -log10 of the concentration in molar units; reply with that number alone.

*Q* Fill blank: measured pKd of the binder F6-208 (antibody, V domains shown) VH: QVQLEESGGGVVQPGTSLRLSCSSSGVTRNTYAVHWVRQVPGKGLEWLAATSYDGTSKYYPENGHGRVSISKEYSTNMVYLEIYNLRPEDTAVYFCAKGPQGIYSYIGYFYYMDVWGKGTTVTVSS VL: QSALTQPASVSGSPGQSITLSCTGSRDDVGDYDYVSWYQHHPGKAPRLIIYDVTSRPSGVSPRFSGSKSGNTASLTISGLQADDEADYYCNSYTSSNSVVFGGGTKVTVL is ____.
*A* 10.27

*Q* If you can, please state the reported pKd value of MEDI8897 (antibody, V domains shown) VH: QVQLVQSGAEVKKPGSSVMVSCQASGGLLEDYIINWVRQAPGQGPEWMGGIIPVLGTVHYGPKFQGRVTITADESTDTAYMELSSLRSEDTAMYYCATETALVVSETYLPHYFDNWGQGTLVTVSS VL: DIQMTQSPSSLSAAVGDRVTITCQASQDIVNYLNWYQQKPGKAPKLLIYVASNLETGVPSRFSGSGSGTDFSLTISSLQPEDVATYYCQQYDNLPLTFGGGTKVEIKR .
*A* 9.42
